Test system: LLC-MK2 cells
Format: cell-based, Rhesus monkey
Conditions: 50 µM
Where a SMILES comes first, the peptide text is derived from it.
observation-type: Cell Viability (%)
# number only, unit % dropped from output

# molecule, experimental-system, scale-unit, Cell Viability (%)
measured = [
    ("CC(C)C[C@H](NC(=O)[C@H](Cc1ccccc1)NC(=O)[C@H](CC(=O)O)NC(=O)CNC(=O)[C@H](CCC(=O)O)NC(=O)CNC(=O)[C@H](CO)NC(=O)[C@@H](N)CC(=O)O)C(=O)N[C@@H](C)C(=O)N[C@@H](CCC(=O)O)C(=O)NCC(=O)NCC(=O)NCC(=O)N[C@H](C(=O)N[C@@H](CCCNC(=N)N)C(=O)O)C(C)C [Peptide D15R] (H-DSGEGDFLAEGGGVR-OH; N-terminus and C-terminus assumed)", "LLC-MK2 cells", "%", 101.25),
]

## Task Specify measured Cell Viability (%) for CC(C)C[C@H](NC(=O)CNC(=O)[C@H](CC(C)C)NC(=O)[C@H](C)NC(=O)[C@H](C)NC(=O)[C@H](CCC(N)=O)NC(=O)[C@H](CO)NC(=O)[C@H](C)NC(=O)[C@H](C)NC(=O)[C@@H](NC(=O)[C@H](CC(C)C)NC(=O)[C@H](CCCCN)NC(=O)[C@@H](N)CCCCN)C(C)C)C(=O)O [Peptide K13L] (H-KKLVAASQAALGL-OH) .
## Result 105.04

## Task # return recorded Cell Viability (%) for entry CC[C@H](C)[C@H](NC(=O)[C@H](CCCCN)NC(=O)[C@H](CO)NC(=O)CNC(=O)[C@H](CC(C)C)NC(=O)[C@H](CO)NC(=O)[C@H](Cc1ccccc1)NC(=O)[C@H](CCC(N)=O)NC(=O)[C@H](CC(C)C)NC(=O)[C@H](CCC(=O)O)NC(=O)[C@H](CCC(=O)O)NC(=O)[C@H](CCC(=O)O)NC(=O)[C@H](CC(C)C)NC(=O)CN)C(=O)N[C@@H](CC(N)=O)C(=O)N[C@H](C(=O)N[C@@H](CCCCN)C(=O)O)C(C)C [Peptide G17K] (H-GLEEELQFSLGSKINVK-OH)
## Result 99.73

====

Tested on: LLC-MK2 cells
Format: cell-based, Rhesus monkey
Conditions: 25 µM
Where a SMILES comes first, the peptide text is derived from it.
compounds and their reported Cell Viability (%)
Numeric only. Scale: %

# compound, test-result
data = [
    ("CC(C)C[C@H](NC(=O)CNC(=O)[C@H](CC(C)C)NC(=O)[C@H](C)NC(=O)[C@H](C)NC(=O)[C@H](CCC(N)=O)NC(=O)[C@H](CO)NC(=O)[C@H](C)NC(=O)[C@H](C)NC(=O)[C@@H](NC(=O)[C@H](CC(C)C)NC(=O)[C@H](CCCCN)NC(=O)[C@@H](N)CCCCN)C(C)C)C(=O)O [Peptide K13L] (H-KKLVAASQAALGL-OH)", 105.95),
]

## Task Return the recorded Cell Viability (%) value; entry: CC[C@H](C)[C@H](NC(=O)[C@H](CCCCN)NC(=O)[C@H](CO)NC(=O)CNC(=O)[C@H](CC(C)C)NC(=O)[C@H](CO)NC(=O)[C@H](Cc1ccccc1)NC(=O)[C@H](CCC(N)=O)NC(=O)[C@H](CC(C)C)NC(=O)[C@H](CCC(=O)O)NC(=O)[C@H](CCC(=O)O)NC(=O)[C@H](CCC(=O)O)NC(=O)[C@H](CC(C)C)NC(=O)CN)C(=O)N[C@@H](CC(N)=O)C(=O)N[C@H](C(=O)N[C@@H](CCCCN)C(=O)O)C(C)C [Peptide G17K] (H-GLEEELQFSLGSKINVK-OH)
## Result 99.07

## Task For the compound C[C@H](NC(=O)[C@H](CCC(=O)O)NC(=O)[C@H](CO)NC(=O)CNC(=O)[C@H](C)NC(=O)[C@H](CCC(=O)O)NC(=O)[C@@H](N)CC(=O)O)C(=O)N[C@@H](CC(=O)O)C(=O)N[C@@H](Cc1c[nH]cn1)C(=O)N[C@@H](CCC(=O)O)C(=O)NCC(=O)N[C@H](C(=O)N[C@@H](Cc1c[nH]cn1)C(=O)N[C@@H](CO)C(=O)N[C@H](C(=O)O)[C@@H](C)O)[C@@H](C)O [Peptide D15T] (H-DEAGSEADHEGTHST-OH; N-terminus and C-terminus assumed) , report Cell Viability (%).
## Result 108.50

## Task Give me measured Cell Viability (%), please, for this compound: CC(C)C[C@H](NC(=O)[C@H](Cc1ccccc1)NC(=O)[C@H](CC(=O)O)NC(=O)CNC(=O)[C@H](CCC(=O)O)NC(=O)CNC(=O)[C@H](CO)NC(=O)[C@@H](N)CC(=O)O)C(=O)N[C@@H](C)C(=O)N[C@@H](CCC(=O)O)C(=O)NCC(=O)NCC(=O)NCC(=O)N[C@H](C(=O)N[C@@H](CCCNC(=N)N)C(=O)O)C(C)C [Peptide D15R] (H-DSGEGDFLAEGGGVR-OH; N-terminus and C-terminus assumed)
## Result 101.32

## Task Using known records, supply Cell Viability (%) for CC(C)[C@H](NC(=O)[C@@H](NC(=O)[C@H](Cc1ccccc1)NC(=O)CNC(=O)[C@H](CCC(=O)O)NC(=O)[C@H](CC(N)=O)NC(=O)[C@H](CCC(=O)O)NC(=O)[C@H](CCCCN)NC(=O)[C@@H](NC(=O)[C@H](CCC(=O)O)NC(=O)[C@H](CCC(=O)O)NC(=O)[C@@H](N)CO)[C@@H](C)O)[C@@H](C)O)C(=O)N[C@H](C(=O)N[C@@H](C)C(=O)N[C@@H](CCC(=O)O)C(=O)NCC(=O)N[C@@H](CCCCN)C(=O)O)[C@@H](C)O [Peptide S17K] (H-SEETKENEGFTVTAEGK-OH; N-terminus and C-terminus assumed)
## Result 103.47
